TEST TARGET: hTAS2R16 (Homo sapiens)
Construct: expressed in transfected cells; host or cells: HEK293T
Sequence (Q9NYV7 whole entry): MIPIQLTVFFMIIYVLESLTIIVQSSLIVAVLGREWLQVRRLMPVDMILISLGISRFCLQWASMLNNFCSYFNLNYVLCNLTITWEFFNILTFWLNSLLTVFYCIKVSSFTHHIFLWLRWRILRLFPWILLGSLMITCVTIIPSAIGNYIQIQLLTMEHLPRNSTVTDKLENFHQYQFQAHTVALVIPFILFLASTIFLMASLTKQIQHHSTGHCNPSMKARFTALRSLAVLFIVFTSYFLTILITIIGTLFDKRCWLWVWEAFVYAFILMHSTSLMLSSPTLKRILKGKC
METHOD DESCRIPTION: Cellular Ca2+ response, cell-based assay (Calcium-4, FlexStation III) in HEK293T cells co-expressing wild-type hTAS2R16 and G16αgust44
CONDITION SET: IC50 of umami substances in the presence of 10 mM salicin, Figure 2B; pretreatment with sample, fixed 10 mM salicin; means ± SEM
Where a SMILES comes first, the peptide text is derived from it.
REPORTED ENDPOINT: IC50 (mM)
Your answer is read as mM, so omit the unit and give the number.

Documented IC50 of N[C@@H](CCC(=O)O)C(=O)N[C@@H](CCC(=O)O)C(=O)O [Glu-Glu] (H-Glu-Glu-OH) : 8.62

====

Answer each item with its documented pIC50.
TEST TARGET: hTAS2R16 (Homo sapiens)
Construct: expressed in transfected cells; host or cells: HEK293T
METHOD DESCRIPTION: Cellular Ca2+ response, cell-based assay (Calcium-4, FlexStation III) in HEK293T cells co-expressing wild-type hTAS2R16 and G16αgust44
CONDITION SET: IC50 in the presence of 10 mM salicin, Table 2; + IMP 0 mM; means ± SEM
Protocol: HEK293T cells were purchased from American Type Culture Collection (ATCC; Manassas, VA, USA) and cultured as described previously. The plasmids hTAS2R16 and G16αgust44 were constructed as described previously. […] The umami substances-induced changes in the cytosolic Ca^2+ concentration were measured using a FlexStation III microplate reader (Molecular Devices, Sunnyvale, CA, USA). […] Following treatment, the fluorescence intensity (excitation, 486 nm; emission, 525 nm) of the cell was measured. […]
Structures can show the parent of a compound that is named as a salt. Where a SMILES comes first, the peptide text is derived from it.
Note on pIC50: it is the negative log10 of concentration, concentration in mol/L.

Reported pIC50 of CCNC(=O)CC[C@H](N)C(=O)O [L-Theanine, γ-glutamylethylamide] : 1.11

// pIC50 lookup, molecule = N[C@@H](CCC(=O)O)C(=O)O [MSG, L-glutamic acid monosodium salt hydrate] , result: 1.19

Entry N[C@@H](CCC(=O)O)C(=O)N[C@@H](CCC(=O)O)C(=O)O [Glu-Glu] (H-Glu-Glu-OH) , pIC50 reported as 2.14

Values from paper PMC7582725
